System: HT29 colon
Experiment: NCI-60 one-dose screen, 48 h
Details: 10 µM unless noted
This is part of a sample that, as a whole, favours compounds with a hit. Of some 83,000 tested, about 20% had one in any assay. Active and inactive are the calls of the source. Rule for the calls: active = growth percent below 10; inactive = the rest.
Outcome codes: active, inactive

COMPOUND: CC[C@H](Nc1ncnc2nc[nH]c12)c1nc2cccc(NCc3ccc(C(=O)NO)o3)c2c(=O)n1-c1ccccc1
LABEL VALUE: inactive
--
COMPOUND: C=C(C)C(C(=O)OCC)(C(=O)OCC)C(C)C
LABEL VALUE: inactive
--
COMPOUND: O=C(Cc1ccccc1[N+](=O)[O-])c1ccc2c(c1)OCO2
LABEL VALUE: inactive
--
COMPOUND: CCC(C)[C@H](NC(=O)Nc1cc(C(F)(F)F)cc(C(F)(F)F)c1)C(=O)N[C@@H](Cc1cn(C)cn1)C(=O)OC (stereo not given in full)
LABEL VALUE: active
--
COMPOUND: CCCCCCCCCCCCCCCCNC(=S)N/N=C/c1ccc(O)cc1O
LABEL VALUE: inactive
--
COMPOUND: O=C1N/C(=N\c2nnc(-c3ccc(O)cc3)s2)S/C1=C\c1ccccc1O
LABEL VALUE: inactive
--
COMPOUND: Cn1c2c(cc(S(=O)(=O)c3ccccc3)c1=O)CCc1c-2cnn1-c1ccc(Cl)cc1
LABEL VALUE: inactive
--
COMPOUND: CC(=O)Nc1nc(C)c(C(=O)N/N=C/c2cccs2)s1
LABEL VALUE: inactive
--
COMPOUND: NC(=O)CC(NC(=O)COc1ccc(Cl)cc1Cl)C(=O)O (stereo not given)
LABEL VALUE: inactive
--
COMPOUND: COc1ccc(C2C3(C#N)C(N)=NC(=C(C#N)C#N)C23C#N)cc1OC (stereo not given)
LABEL VALUE: inactive
